# assay remarks: chemical genetic growth profiling, strain panel (AID 1159580);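 further: tested at 20 µM; growth read once vehicle control cultures reached saturation at 30 °C; lower values mean less growth of the strain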
# condition parameters: S. cerevisiae deletion strains, growth OD, locus YJL095W, strain BCK1 (second series)
About 2,000 (36%) of roughly 5,500 compounds were called active. Roughly 18% stayed inconclusive and do not appear here. No stated cut-off is given here; in the data, active means normalized growth mostly below about 0.91 (no sharp cut-off); inconclusive means no clear call, values can overlap the other calls; inactive means mostly above about 0.92. The list shows a part of the results.
Labels: active, inactive

[
  {
    "molecule": "CC(=CC1CCC(C)C2CCC(C)=C12)C(=O)O (stereo unspecified)",
    "label": "inactive"
  },
  {
    "molecule": "CCCC(=O)Nc1ccc(OCC(O)CNC(C)C)c(C(C)=O)c1 (stereo unspecified)",
    "label": "inactive"
  },
  {
    "molecule": "O=C(Nc1ccc([N+](=O)[O-])cc1Cl)c1cc(Cl)ccc1O",
    "label": "active"
  },
  {
    "molecule": "C/C(=C\\CO)CC[C@H](C)CCC[C@H](C)CCCC(C)C",
    "label": "inactive"
  },
  {
    "molecule": "C=C(C)C1Cc2c(ccc3c(=O)c4c(oc23)COc2cc(OC)c(OC)cc2-4)O1 (stereo unspecified)",
    "label": "inactive"
  },
  {
    "molecule": "CC(C)CCCC(C)N (stereo unspecified)",
    "label": "inactive"
  }
]

Recorded values, source PubChem BioAssay AID1159580.
